For each of the molecules below, state its residual activity.
# Assay Target: UniProtKB Q13237
# Sequence (Q13237 whole entry, looked up): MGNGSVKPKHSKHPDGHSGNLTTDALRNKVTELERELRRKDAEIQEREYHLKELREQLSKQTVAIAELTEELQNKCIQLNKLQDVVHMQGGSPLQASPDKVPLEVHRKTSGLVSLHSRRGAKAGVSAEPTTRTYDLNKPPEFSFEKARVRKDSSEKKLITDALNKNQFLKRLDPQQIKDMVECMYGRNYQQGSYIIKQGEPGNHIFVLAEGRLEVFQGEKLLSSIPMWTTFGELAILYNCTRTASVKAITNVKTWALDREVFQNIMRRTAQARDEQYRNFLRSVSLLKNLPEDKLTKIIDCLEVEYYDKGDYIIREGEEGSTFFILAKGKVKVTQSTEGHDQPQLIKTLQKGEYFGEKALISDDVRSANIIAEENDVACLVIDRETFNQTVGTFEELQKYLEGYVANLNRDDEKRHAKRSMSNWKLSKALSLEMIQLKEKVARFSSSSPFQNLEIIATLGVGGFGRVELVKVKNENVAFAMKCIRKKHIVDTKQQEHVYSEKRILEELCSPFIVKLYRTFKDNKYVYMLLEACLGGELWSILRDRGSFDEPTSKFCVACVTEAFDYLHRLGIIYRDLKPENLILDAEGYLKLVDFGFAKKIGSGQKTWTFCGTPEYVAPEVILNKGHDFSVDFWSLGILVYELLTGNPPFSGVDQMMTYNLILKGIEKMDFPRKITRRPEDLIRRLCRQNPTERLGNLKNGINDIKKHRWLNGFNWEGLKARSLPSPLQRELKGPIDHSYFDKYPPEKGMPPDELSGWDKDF
# Experiment Summary: radiometric filter-binding kinase assay, Kinase HotSpot
# Test Context: compound 0.5 µM; ATP 10 µM
Answers are plain numbers, in %.

[[record]]
molecule = "Cc1ccc(NC(=O)c2ccc(CN3CCN(C)CC3)cc2)cc1Nc1nc(-c2cccnc2)cs1"
unit_annotation = "%"
value_observed = 95.4


Respectfully, I request residual activity for each entry included below.
1. COc1cc2nccc(Oc3ccc(NC(=S)NC(=O)c4ccccc4C)cc3)c2cc1OC
2. CS(=O)c1ccc(-c2nc(-c3ccc(F)cc3)c(-c3ccncc3)[nH]2)cc1 (stereo not given)

// result
[90.5, 92.7]

Lab note: each molecule below needs its residual activity filled in.
1. NC(=O)c1ccc(N(C(N)=O)c2c(F)cccc2F)nc1-c1ccc(F)cc1F
2. CC(C)n1cnc2c(Nc3cccc(Cl)c3)nc(NCCO)nc21
3. Cc1cc2ncc(-c3ccccc3)nc2cc1C
4. O=C1Cc2c([nH]c3ccc([N+](=O)[O-])cc23)-c2ccccc2N1
5. CCN1/C(=C/C(C)=O)Sc2ccc(OC)cc21

// result
1. 98.1
2. 82.7
3. 99.3
4. 97.6
5. 65.8

Please supply residual activity for each of the following items, keeping them in order.
1. O=C(NC(NC(=S)Nc1ccc(F)c([N+](=O)[O-])c1)C(Cl)(Cl)Cl)C(c1ccccc1)c1ccccc1 (stereo not given)
2. O=c1cc(N2CCNCC2)oc2c(-c3ccccc3)cccc12

// result
96.6
107

###

Would you kindly list residual activity for each of these compounds?
# Assay Target: EPHA4 (human)
# Experiment Summary: radiometric filter-binding kinase assay, Kinase HotSpot
# Test Context: compound 0.5 µM; ATP 10 µM
Numbers only, in %.

Example cases with answers are listed next.
[[record]]
compound = "NC(=O)c1ccc(N(C(N)=O)c2c(F)cccc2F)nc1-c1ccc(F)cc1F"
experimental_endpoint = "residual activity"
unit_annotation = "%"
value_observed = 105

[[record]]
compound = "O=C(NC(NC(=S)Nc1ccc(F)c([N+](=O)[O-])c1)C(Cl)(Cl)Cl)C(c1ccccc1)c1ccccc1 (stereo not given)"
experimental_endpoint = "residual activity"
unit_annotation = "%"
value_observed = 101

[[record]]
compound = "Nc1nc(Nc2ccc(S(N)(=O)=O)cc2)nn1C(=O)c1c(F)cccc1F"
experimental_endpoint = "residual activity"
unit_annotation = "%"
value_observed = 91.3

[[record]]
compound = "Cc1ccc(NC(=O)c2ccc(CN3CCN(C)CC3)cc2)cc1Nc1nc(-c2cccnc2)cs1"
experimental_endpoint = "residual activity"
unit_annotation = "%"
value_observed = 105

[[record]]
compound = "CC(C)(C)c1nc2c3ccc(F)cc3c3c(=O)[nH]ccc3c2[nH]1"
experimental_endpoint = "residual activity"
unit_annotation = "%"
value_observed = 101

[[record]]
compound = "Clc1ccc(Nc2nnc(Cc3ccncc3)c3ccccc23)cc1"
experimental_endpoint = "residual activity"
unit_annotation = "%"
value_observed = 102


Batch lookup, residual activity per entry.
1. O=c1cc(-c2cccc3c2Sc2ccccc2S3)oc(N2CCOCC2)c1
2. COc1cc2nccc(Oc3ccc(NC(=S)NC(=O)c4ccccc4C)cc3)c2cc1OC
3. CCN1/C(=C/C(C)=O)Sc2ccc(OC)cc21

// result
101
81.4
95.5

// query Provide residual activity value for the following compound: COc1cc2ncnc(Nc3ccc(F)c(Cl)c3)c2cc1OCCCN1CCOCC1
// result 90.2
